test: yeast display, Sf9 membrane polyspecificity reagent, FACS + sequencing; frameworks hold sequencing errors
ATTRIBUTE_MEASURED: polyreactivity (PSR sort gate)

{"columns": ["RESIDUE_STRING", "READING"],
 "data": [
  ["QVQLVESGGALDQAGGSLRLSCAASGRIFKWYAKGWYRQAPGKERELVATISWSGGSTYYADSVKGRFTISRDNAKKTVYLQMNSLKPEDTAVYYCNADTWLALPGFDYWGQGTQVTVSS", "high polyreactivity"],
  ["QVQLVESGGGLVQAGGSLRLSCAASGSTFTRYAMGWYRQEPGKERELVAAITRRGVSTYYSDSVKGRFTISLDNAKNTVYLQMNSLKPEDTAVYYCNADVEHYSTLSEYWGQGTQVTVSS", "high polyreactivity"],
  ["QVQLVESGGGLVQAGGSLRLSCAASGSILVPYAMGWYRQAPGKERELVAAISIRTGSTYYADSVKGRFTISRDNAKNTVYLQMNSLKPEDTAVYYCNAAHRKPYTGLNYWGQGTQVTVSS", "high polyreactivity"]
]}
